Recorded values, source the RNAGym collection of RNA variant scans (doi:10.7554/elife.80360).

B1: HDV Ribozyme (parent)
chain: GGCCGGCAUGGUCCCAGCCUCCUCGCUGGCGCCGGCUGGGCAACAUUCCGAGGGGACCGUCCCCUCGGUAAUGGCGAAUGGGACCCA

Variants of: B1
Test: self-cleavage, relative activity (ratio to wild type); higher = more cleavage; co-transcriptional
Known self-cleavage of a selection of variants
API note: the answer field is a bare number with no unit suffix.

Consider the following illustrative entries.
mutation_name: G11C G50C
value_observed: 0.365

mutation_name: G76U A87U
value_observed: 1.04

mutation_name: G1C U27A
value_observed: 0.185

## Task Name the recorded self-cleavage of the item C7U G74C in your answer.
## Result 0.325

## Task Name the recorded self-cleavage of the item C22U G35U in your answer.
## Result 0.0511

## Task Name the recorded self-cleavage of the item U9A C44A in your answer.
## Result 0.831

## Task Name the recorded self-cleavage of the item C58A A78C in your answer.
## Result 0.108

## Task Name the recorded self-cleavage of the item C24U C30A in your answer.
## Result 0.0482
